biological target: VLA4 (Homo sapiens, UniProt P05556+P13612); construct: endogenous in cells; host or cells: Ramos cells; assay: Inhibition of VLA4-dependent adhesion of Ramos cells to BSA-CS1; format: cell-based; details: Ramos cells, BSA-CS1 coated wells, 2 mM MnCl2, 30 minutes at room temperature; read-out: IC50
Sequence (P13612 34-1032): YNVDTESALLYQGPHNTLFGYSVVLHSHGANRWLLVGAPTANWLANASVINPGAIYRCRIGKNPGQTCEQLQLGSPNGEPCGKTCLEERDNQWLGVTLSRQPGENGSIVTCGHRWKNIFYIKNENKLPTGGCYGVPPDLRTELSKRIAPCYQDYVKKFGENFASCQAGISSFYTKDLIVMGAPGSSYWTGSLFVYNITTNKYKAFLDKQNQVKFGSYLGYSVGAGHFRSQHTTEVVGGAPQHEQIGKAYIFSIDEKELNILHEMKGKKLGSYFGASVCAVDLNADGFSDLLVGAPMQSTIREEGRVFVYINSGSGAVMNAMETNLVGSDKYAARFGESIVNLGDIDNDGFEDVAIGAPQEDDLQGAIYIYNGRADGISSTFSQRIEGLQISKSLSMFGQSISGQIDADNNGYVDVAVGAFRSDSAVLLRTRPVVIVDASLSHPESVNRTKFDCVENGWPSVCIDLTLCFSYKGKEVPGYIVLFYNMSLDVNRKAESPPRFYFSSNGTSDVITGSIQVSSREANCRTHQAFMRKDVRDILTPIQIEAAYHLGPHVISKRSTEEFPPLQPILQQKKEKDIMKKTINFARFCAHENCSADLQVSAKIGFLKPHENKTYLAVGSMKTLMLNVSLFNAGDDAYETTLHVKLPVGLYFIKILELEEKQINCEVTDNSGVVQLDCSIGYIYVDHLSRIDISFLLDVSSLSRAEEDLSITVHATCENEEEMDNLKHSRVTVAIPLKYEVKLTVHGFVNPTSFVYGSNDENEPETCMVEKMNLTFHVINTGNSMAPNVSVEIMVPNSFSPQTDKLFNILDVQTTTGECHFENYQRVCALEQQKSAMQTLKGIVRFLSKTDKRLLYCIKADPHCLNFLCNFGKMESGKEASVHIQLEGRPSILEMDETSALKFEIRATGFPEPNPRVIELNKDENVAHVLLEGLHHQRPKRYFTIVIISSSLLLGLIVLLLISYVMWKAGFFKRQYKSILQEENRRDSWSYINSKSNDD
Sequence (P05556 21-798): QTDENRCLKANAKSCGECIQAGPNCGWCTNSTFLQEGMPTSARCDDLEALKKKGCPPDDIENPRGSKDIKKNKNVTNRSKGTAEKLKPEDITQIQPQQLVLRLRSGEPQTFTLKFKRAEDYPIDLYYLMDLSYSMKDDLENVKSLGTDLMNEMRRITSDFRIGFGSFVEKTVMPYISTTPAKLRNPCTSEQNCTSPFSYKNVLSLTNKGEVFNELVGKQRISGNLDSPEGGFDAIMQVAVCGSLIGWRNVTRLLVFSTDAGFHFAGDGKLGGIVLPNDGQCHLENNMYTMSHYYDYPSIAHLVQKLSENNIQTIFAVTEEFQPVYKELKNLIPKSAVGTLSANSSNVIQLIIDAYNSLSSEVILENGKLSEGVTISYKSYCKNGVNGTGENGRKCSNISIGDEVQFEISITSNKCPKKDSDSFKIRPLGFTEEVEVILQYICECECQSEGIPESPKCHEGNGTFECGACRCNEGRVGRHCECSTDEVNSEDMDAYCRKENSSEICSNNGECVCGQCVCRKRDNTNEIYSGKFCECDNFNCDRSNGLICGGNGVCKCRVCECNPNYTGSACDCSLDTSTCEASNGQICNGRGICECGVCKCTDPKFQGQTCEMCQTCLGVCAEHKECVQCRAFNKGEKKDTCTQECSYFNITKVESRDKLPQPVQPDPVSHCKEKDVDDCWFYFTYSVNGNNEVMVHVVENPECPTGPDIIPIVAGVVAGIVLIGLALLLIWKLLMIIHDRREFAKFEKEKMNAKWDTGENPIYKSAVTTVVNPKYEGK
pIC50: −log10 of the molar value. Numbered stars: 1 amine (or outer) side, 2 acyl side, 3 side chain; on linkers, the order of the positions; unused ones are H or OH. Square brackets hold non-standard residues; d marks the D form. Peptide text beside a SMILES is read from it. * marks the point of attachment. X2 = O=C(Cc1ccc(N[*:1])cc1)[*:2]; CO = O=C([*:1])[*:2]; NHBn = c1ccc(CN*)cc1; NHPh = c1ccc(N*)cc1
Provide the recorded pIC50 for the entries that follow.

# example entries with known answers
{"molecule": "COC(=O)[C@@H](NC(=O)[C@H](CC(=O)O)NC(=O)CNC(=O)c1ccccc1)C(C)C [Compound 172] (HELM PEPTIDE1{[O=C(c1ccccc1)[*:2]].G.D.V.[CO[*:1]]}$$$$V2.0)", "measuredEndpoint": "pIC50", "observedMeasurement": "< 5.00"}
{"molecule": "COC(=O)[C@H](CCSC)NC(=O)[C@@H](NC(=O)[C@H](CC(=O)O)NC(=O)[C@H](CC(C)C)NC(=O)c1ccc2ccccc2n1)C(C)C [Compound 168] (HELM PEPTIDE1{[O=C(c1ccc2ccccc2n1)[*:2]].L.D.V.M.[CO[*:1]]}$$$$V2.0)", "measuredEndpoint": "pIC50", "observedMeasurement": "5.00 to 7.30"}
{"molecule": "CCCCCCNC(=O)[C@H](CC(=O)O)NC(=O)[C@H](CC(C)C)NC(=O)CCc1ccc(O)cc1", "measuredEndpoint": "pIC50", "observedMeasurement": "< 5.00"}
{"molecule": "CC(C)C[C@H](NC(=O)Cc1ccc(NC(=O)Nc2ccccc2)cc1)C(=O)N[C@@H](CC(=O)O)C(=O)N[C@H](C(=O)NC1CCCCC1)C(C)C", "measuredEndpoint": "pIC50", "observedMeasurement": "5.00 to 7.30"}
{"molecule": "CC(C)CNC(=O)[C@H](CC(=O)O)NC(=O)[C@H](CC(C)C)NC(=O)CCCCc1ccccc1", "measuredEndpoint": "pIC50", "observedMeasurement": "< 5.00"}
{"molecule": "CC(C)C[C@H](NC(=O)Cc1ccc(NC(=O)Nc2ccccc2)cc1)C(=O)N[C@@H](CC(=O)O)C(=O)N[C@H](C(=O)N1CCC[C@H]1C(=O)NCc1ccccc1)C(C)C [Compound 326] ({NHPh-CO}-[X2]LDVP-NHBn)", "measuredEndpoint": "pIC50", "observedMeasurement": "> 7.30"}
{"molecule": "CC(C)C[C@H](NC(=O)c1ccc2ccccc2n1)C(=O)N[C@@H](CC(=O)O)C(=O)N[C@H](C(=O)OC(C)(C)C)C(C)C", "measuredEndpoint": "pIC50", "observedMeasurement": "< 5.00"}
{"molecule": "Cc1ccccc1NC(=O)Nc1ccc(CC(=O)N[C@@H](CO)C(=O)N[C@@H](CC(=O)O)C(=O)N[C@@H](CC(C)C)C(N)=O)cc1", "measuredEndpoint": "pIC50", "observedMeasurement": "> 7.30"}
{"molecule": "CC(C)CNC(=O)[C@@H](NC(=O)[C@H](CC(=O)O)NC(=O)[C@H](CC(C)C)NC(=O)Cc1ccc(NC(=O)Nc2ccccc2)cc1)C(C)C", "measuredEndpoint": "pIC50", "observedMeasurement": "5.00 to 7.30"}
{"molecule": "CC(C)C[C@H](NC(=O)c1ccccc1)C(=O)N[C@@H](CC(=O)O)C(=O)N[C@H](C(=O)O)C(C)C [Compound 105] (HELM PEPTIDE1{[O=C(c1ccccc1)[*:2]].L.D.V}$$$$V2.0)", "measuredEndpoint": "pIC50", "observedMeasurement": "< 5.00"}

# evaluate next
Data request: Request the reported pIC50 associated with COC(=O)[C@@H](NC(=O)[C@H](CC(=O)O)NC(=O)[C@H](CC(C)C)NC(=O)Cc1ccc(OC)cc1)[C@@H](C)O
Data returned: < 5.00
